Test system: S. aureus Smith
protocol-description: MIC against S. aureus Smith
Assay type: cell-based
recorded-conditions: Staphylococcus aureus; Table I; S = S. aureus Smith; inoculum size = 10^5 /ml
Description: |MIC: μg/ml (inoculum size = 10^5 /ml) |S = S. aureus Smith
Could you please report measured MIC for the items listed next?
I only need the number, in µg/mL, no unit after it.

// lookup MIC for CCC(=O)c1cc[n+](CC2=C(C(=O)[O-])N3C(=O)[C@H](C(C)O)[C@H]3[C@H]2C)cc1 (stereo partly drawn) 0.05

Now give it for CC(O)[C@H]1C(=O)N2C(C(=O)[O-])=C(C[n+]3cccc(O)c3)[C@H](C)[C@H]12 (stereo partly drawn) too. 0.05

Next entry: COc1ccc[n+](CC2=C(C(=O)[O-])N3C(=O)[C@H](C(C)O)[C@H]3[C@H]2C)c1 (stereo partly drawn) 0.025

Now give it for CCc1cc[n+](CC2=C(C(=O)[O-])N3C(=O)[C@H](C(C)O)[C@H]3[C@H]2C)cc1 (stereo partly drawn) too. 0.025

Queued: CC(O)[C@H]1C(=O)N2C(C(=O)[O-])=C(C[n+]3cccc(CN)c3)[C@H](C)[C@H]12 (stereo partly drawn) 0.05

# repeat for CC(O)[C@H]1C(=O)N2C(C(=O)[O-])=C(C[n+]3cccc4c3CCC4)[C@H](C)[C@H]12 (stereo partly drawn) 0.025

Then what about the molecule CC(O)[C@H]1C(=O)N2C(C(=O)[O-])=C(C[n+]3ccc(C(N)=O)cc3)[C@H](C)[C@H]12 (stereo partly drawn) ? 0.025

And for Cc1ccc[n+](CC2=C(C(=O)[O-])N3C(=O)[C@H](C(C)O)[C@H]3[C@H]2C)c1 (stereo partly drawn) ? 0.025

// query: Cc1cccc[n+]1CC1=C(C(=O)[O-])N2C(=O)[C@H](C(C)O)[C@H]2[C@H]1C (stereo partly drawn) 0.025

Entry CC(O)[C@H]1C(=O)N2C(C(=O)[O-])=C(C[n+]3ccc(N)c(N)c3)[C@H](C)[C@H]12 (stereo partly drawn) please 0.0125

Note, next up: CC(O)[C@H]1C(=O)N2C(C(=O)[O-])=C(C[n+]3cccc(C(N)=O)c3)[C@H](C)[C@H]12 (stereo partly drawn) 0.025

Query COc1cc[n+](CC2=C(C(=O)[O-])N3C(=O)[C@H](C(C)O)[C@H]3[C@H]2C)cc1 (stereo partly drawn) next 0.025

Can you handle CC(O)[C@H]1C(=O)N2C(C(=O)[O-])=C(C[n+]3ccsc3N)[C@H](C)[C@H]12 (stereo partly drawn) next? 0.0125

Here is the next molecule: CC(O)[C@H]1C(=O)N2C(C(=O)[O-])=C(C[n+]3ccc(-c4ncco4)cc3)[C@H](C)[C@H]12 (stereo partly drawn) 0.025

Next: CC(O)[C@H]1C(=O)N2C(C(=O)[O-])=C(C[n+]3cccc(-c4cnco4)c3)[C@H](C)[C@H]12 (stereo partly drawn) 0.025
